Entries and their measured pIC50 follow.
Biological target: KRAS G12C (Homo sapiens, UniProt P01116, G12C)
Construct: KRAS G12C (amino acid region: 1-169)
Sequence (P01116 1-169 isoform P01116-2 G12C): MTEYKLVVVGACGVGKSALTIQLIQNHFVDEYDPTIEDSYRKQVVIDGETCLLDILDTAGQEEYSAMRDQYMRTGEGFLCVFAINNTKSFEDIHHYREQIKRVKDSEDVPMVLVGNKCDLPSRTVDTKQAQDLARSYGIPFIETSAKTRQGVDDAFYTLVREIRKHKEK
Experiment: Inhibitory activity on the KRAS G12C nucleotide (GDP-GTP) exchange reaction
Details: Bodipy FL GDP-bound KRAS G12C 25 nM; preincubation at 25° C. for 4 hours; SOS1 100 nM, GppNHp 1 μM, reaction for 30 minutes
Notebook: values listed as pIC50 are -log10 of the concentration (mol/L).

// known answers, use as guide
Report pIC50 for C=CC(=O)N1CC(NC(=O)c2c(F)nc(CNc3n[nH]c4cc(Cl)c(C(C)(C)C)cc34)n2C)C1
7.96

Report pIC50 for C=CC(=O)N1CC[C@@H](NC(=O)c2c(Cl)nc(CNc3n[nH]c4cc(Cl)c(C(C)(C)C)cc34)n2C)C1
7.28

Report pIC50 for C=CC(=O)N1C[C@@H](CO)[C@@H](NC(=O)c2c(C)nc(CNc3n[nH]c4cc(Cl)c(C(C)(C)C)cc34)n2C)C1
7.55

Report pIC50 for C=CC(=O)N1CC(NC(=O)c2c(Cl)nc(CNc3n[nH]c4cc(Cl)c(C(C)(C)C)cc34)n2C2CCCN(C)C2)C1 (stereo not shown)
8.30

Report pIC50 for C=CC(=O)N1CC(NC(=O)c2cnc(CNc3n[nH]c4cc(Cl)c(C(C)(C)C)cc34)s2)C1
6.11

Report pIC50 for Cc1nc(CNc2n[nH]c3cc(Cl)c(C(C)(C)C)cc23)n(C(C)C)c1C(=O)NC1CN(C(=O)/C=C/CN2CCCCC2)C1
6.91

More entries:
Report pIC50 for C=CC(=O)N1CC(NC(=O)c2cnc(CNc3n[nH]c4cc(Cl)c(C=C)cc34)n2C)C1
5.66

###

Entries and their measured pIC50 follow.
Target: KRAS G12C (Homo sapiens, UniProt P01116, G12C)
Construct: KRAS G12C (amino acid region: 1-169)
Experiment: Inhibitory activity on the KRAS G12C nucleotide (GDP-GTP) exchange reaction
Conditions: Bodipy FL GDP-bound KRAS G12C 25 nM; preincubation at 25° C. for 4 hours; SOS1 100 nM, GppNHp 1 μM, reaction for 30 minutes
Notebook: values listed as pIC50 are -log10 of the concentration (mol/L).

// known answers, use as guide
Report pIC50 for C=CC(=O)N1CC(NC(=O)c2c(Cl)nc(CNc3n[nH]c4cc(Cl)c(C(C)(C)C)cc34)n2[C@@H]2CCN(CCOC)C2)C1
7.96

Report pIC50 for C=CC(=O)N1CC(NC(=O)c2c(Cl)nc(CNc3n[nH]c4cc(Cl)c(C(C)(C)C)cc34)n2[C@@H]2CCN(C3COC3)C2)C1
8.30

More entries:
Report pIC50 for C=CC(=O)N1CC(NC(=O)c2c(C)nc(CNc3n[nH]c4cc(Cl)c(C(C)(C)C)cc34)n2C2CC2)C1
8.15

Report pIC50 for C=CC(=O)N1CC(NC(=O)c2c(C)c(CNc3n[nH]c4cc(Cl)c(C(C)(C)C)cc34)nn2C)C1
6.89

Report pIC50 for C=CS(=O)(=O)N1CC(NC(=O)c2c(C)nc(CNc3n[nH]c4cc(Cl)c(C(C)(C)C)cc34)n2C(C)C)C1
7.24

Report pIC50 for C=CC(=O)N1C[C@@H](F)[C@@H](NC(=O)c2c(C)nc(CNc3n[nH]c4cc(Cl)c(C(C)(C)C)cc34)n2C)C1
6.49

Report pIC50 for C=CC(=O)N1CC(NC(=O)c2c(Cl)nc(CNc3n[nH]c4cc(Cl)c(C(C)(C)C)cc34)n2[C@@H]2CCN(CC(F)F)[C@H]2C)C1
7.89

Report pIC50 for C=CC(=O)N1CC(NC(=O)c2c(C)nc(CNc3n[nH]c4cc(Cl)c(C(C)(C)C)cc34)n2C(C)(C)C)C1
7.46

Reference for the values: patent US20230181536A1
